- Test system: phospho-akt (Thr308)
- ASSAY_EXPLANATION: phospho-akt (Thr308) MSD ELISA in PC-3 cells
- Type: cell-based
- CONDITION_PARAMETERS: Homo sapiens, PC-3, 2 h, PC-3 cells, 2 hours, no serum; read-out: Inhibition of P308 Akt in cells using MSD EC50
pEC50: −log10 of the molar value.
# Lookup of reported pEC50 keyed by entry

>  <COMPOUND>
CC(=O)Oc1ccc(C(COc2ccc3[nH]c(=O)[nH]c3c2)NC(=O)c2cccn(Cc3cc(F)c(F)c(F)c3)c2=O)cc1 (stereo not drawn)

>  <TESTED_TARGET>
phospho-akt (Thr308)

>  <pEC50>
> 6.00

$$$$
>  <COMPOUND>
O=C(NCc1cccc(-c2c[nH]c3ncc(-c4cccs4)cc23)c1)c1cccn(Cc2ccc(F)c(F)c2)c1=O

>  <TESTED_TARGET>
phospho-akt (Thr308)

>  <pEC50>
5.30 to 6.00

$$$$
>  <COMPOUND>
O=C(NCc1ccc(-c2c[nH]c3nccc(Cl)c23)s1)c1cccn(Cc2ccc(F)c(F)c2)c1=O

>  <TESTED_TARGET>
phospho-akt (Thr308)

>  <pEC50>
5.30 to 6.00

$$$$
>  <COMPOUND>
O=C1Nc2cc(/C=C/CNC(=O)c3cccn(Cc4cc(F)c(F)c(F)c4)c3=O)ccc2/C1=C/c1cccs1

>  <TESTED_TARGET>
phospho-akt (Thr308)

>  <pEC50>
5.30 to 6.00

$$$$
>  <COMPOUND>
O=C(NC1CCCc2ccc(-c3c[nH]c4ncccc34)cc21)c1cccn(Cc2ccc(F)c(F)c2)c1=O (stereo not drawn)

>  <TESTED_TARGET>
phospho-akt (Thr308)

>  <pEC50>
< 5.30

$$$$
>  <COMPOUND>
O=C(NCc1ccc(-c2cccc3[nH]ncc23)s1)c1cccn(Cc2ccc(F)c(F)c2)c1=O

>  <TESTED_TARGET>
phospho-akt (Thr308)

>  <pEC50>
5.30 to 6.00

$$$$

Lab book: pEC50 of O=C(NCc1cccc(-c2ccc3cn[nH]c3c2)c1)c1cccn(Cc2ccc(F)c(F)c2)c1=O noted as < 5.30

Reported pEC50 ( O=C(NCc1cc(OCCN2CCOCC2)cc(-c2c[nH]c3ncccc23)c1)c1cccn(Cc2ccc(F)c(F)c2)c1=O ) = 5.30 to 6.00

For reference, reported pEC50 for O=C(NCCOc1ccc2c(c1)[nH]c(=O)n2C1CC1)c1cccn(Cc2ccc(F)c(F)c2)c1=O stands at < 5.30

----------
- Test system: phospho-akt (Thr308)
- ASSAY_EXPLANATION: phospho-akt (Thr308) MSD ELISA in PC-3 cells
- Format: cell-based
- CONDITION_PARAMETERS: Homo sapiens, PC-3, 2 h, PC-3 cells, 2 hours, no serum; read-out: Inhibition of P308 Akt in cells using MSD EC50
pEC50: −log10 of the molar value.
Recorded pEC50 by entry

>  <COMPOUND>
C[C@@H](c1ccc(Cl)cc1)n1cccc(C(=O)NCc2noc(-c3c[nH]c4ncccc34)n2)c1=O [Cpd 300]

>  <VALUE_KIND>
pEC50

>  <RESULT>
5.30 to 6.00

$$$$
>  <COMPOUND>
O=C(NCc1cccc(-c2c[nH]c3nccc(Cl)c23)c1)c1cccn(Cc2ccc(F)c(F)c2)c1=O [Cpd 50]

>  <VALUE_KIND>
pEC50

>  <RESULT>
5.30 to 6.00

$$$$
>  <COMPOUND>
O=C(NCc1ccc(-c2ccc3[nH]ncc3c2)s1)c1cccn(Cc2ccc(F)c(F)c2)c1=O [Cpd 52]

>  <VALUE_KIND>
pEC50

>  <RESULT>
5.30 to 6.00

$$$$

Entry under test: O=C(NCc1noc(-c2c[nH]c3ncccc23)n1)c1cc(Cl)cn(Cc2ccc(Cl)cc2)c1=O [Cpd 309] . Its pEC50 was 5.30 to 6.00

Record summary for CC(C)Oc1cc(CNC(=O)c2cccn(Cc3ccc(F)c(F)c3)c2=O)cc(-c2c[nH]c3ncc(F)cc23)c1 [Cpd 98] : reported pEC50 = 5.30 to 6.00

// sample CNc1nc(-c2cccc(CNC(=O)c3cccn(Cc4ccc(F)c(F)c4)c3=O)c2)cn2ccnc12 [Cpd 326] , its pEC50 was < 5.30

Lookup result for O=C(NCc1cccc(-c2c[nH]c3ncc(-c4cccnc4)cc23)c1)c1cccn(Cc2ccc(F)c(F)c2)c1=O [Cpd 47] ; measured pEC50: > 6.00

----------
In this section we review reported EC50 values for a set of compounds.
- System: phospho-akt (Thr308)
- ASSAY_EXPLANATION: phospho-akt (Thr308) MSD ELISA in PC-3 cells
- Format: cell-based
- CONDITION_PARAMETERS: Homo sapiens, PC-3, 2 h, PC-3 cells, 2 hours, no serum; read-out: Inhibition of P308 Akt in cells using MSD EC50

Example entries begin here.
>  <SMILES_STR>
O=C1Nc2cc(/C=C/CNC(=O)c3cccn(Cc4cc(F)c(F)c(F)c4)c3=O)ccc2/C1=C/c1cnc[nH]1

>  <EC50>
1 to 5 µM

$$$$
>  <SMILES_STR>
O=C(NCc1ccc(-c2n[nH]c3ncccc23)s1)c1cccn(Cc2ccc(F)c(F)c2)c1=O

>  <EC50>
< 1 µM

$$$$
>  <SMILES_STR>
O=C(NCc1ccc(-c2c[nH]c3ncccc23)s1)c1cccn(Cc2ccc(F)c(F)c2)c1=O

>  <EC50>
1 to 5 µM

$$$$

The compound CNC(=O)C[C@@H](NC(=O)c1cccn(Cc2ccc(F)c(F)c2)c1=O)c1ccc(-c2c[nH]c3ncccc23)s1 showed EC50 equal to 1 to 5 µM

Item: CCNC(=O)C[C@@H](NC(=O)c1cccn(Cc2ccc(F)c(F)c2)c1=O)c1ccc(-c2c[nH]c3ncccc23)s1 | EC50: 1 to 5 µM

Record CN(C)CCOc1cc(CNC(=O)c2cccn(Cc3ccc(F)c(F)c3)c2=O)cc(-c2c[nH]c3ncccc23)c1 . Reported EC50: 1 to 5 µM

The value of EC50 measured for the compound O=C1Nc2cc(/C=C/CNC(=O)c3cccn(Cc4cc(F)c(F)c(F)c4)c3=O)ccc2/C1=C\c1nccs1 turned out to be 1 to 5 µM

# compound CC(C)/C=C1/C(=O)Nc2cc(/C=C/CNC(=O)c3cccn(Cc4cc(F)c(F)c(F)c4)c3=O)ccc21 ; its EC50 = > 5 µM

The measured EC50 associated with O=C(N[C@@H](COc1ccc2[nH]c(=O)[nH]c2c1)c1ccccc1)c1cccn(Cc2ccc(F)c(F)c2)c1=O reads < 1 µM

According to the records, this compound O=C(NC/C=C/c1ccc2[nH]c(=O)[nH]c2c1)c1cccn(Cc2ccc(F)c(F)c2)c1=O displays EC50 of > 5 µM

Measured EC50 of O=C(NCc1ncc(-c2c[nH]c3ncccc23)s1)c1cccn(Cc2ccc(F)c(F)c2)c1=O : < 1 µM

Lab note: O=C(NCc1cccc(-c2c[nH]c3ncc(-c4ccncc4)cc23)c1)c1cccn(Cc2ccc(F)c(F)c2)c1=O gave EC50 of < 1 µM

The reported EC50 of the compound O=C(NCc1noc(-c2c[nH]c3ncccc23)n1)c1cccn(Cc2ccc(Cl)c(F)c2)c1=O was 1 to 5 µM

compound NCc1cnc2[nH]cc(-c3cccc(CNC(=O)c4cccn(Cc5ccc(F)c(F)c5)c4=O)c3)c2c1 , EC50 observed: < 1 µM

Query CN(C)C(=O)c1cc(-c2c[nH]c3ncccc23)cc(CNC(=O)c2cccn(Cc3ccc(F)c(F)c3)c2=O)n1 yields EC50 of 1 to 5 µM

----------
- System: phospho-akt (Thr308)
- ASSAY_EXPLANATION: phospho-akt (Thr308) MSD ELISA in PC-3 cells
- Type: cell-based
- CONDITION_PARAMETERS: Homo sapiens, PC-3, 2 h, PC-3 cells, 2 hours, no serum; read-out: Inhibition of P308 Akt in cells using MSD EC50
VALUE_KIND: EC50

Study these solved cases before continuing.
>  <MOLECULE>
CNc1nc(-c2ccc(CNC(=O)c3cccn(Cc4ccc(F)c(F)c4)c3=O)s2)cn2ccnc12 [Cpd 325]

>  <EC50>
> 5 µM

$$$$
>  <MOLECULE>
CC(C)=C1C(=O)Nc2cc(/C=C/CNC(=O)c3cccn(Cc4cc(F)c(F)c(F)c4)c3=O)ccc21 [Cpd 204]

>  <EC50>
1 to 5 µM

$$$$
>  <MOLECULE>
O=C(NCc1cc(-c2c[nH]c3ncccc23)c[n+]([O-])c1)c1cccn(Cc2ccc(F)c(F)c2)c1=O [Cpd 165]

>  <EC50>
> 5 µM

$$$$
>  <MOLECULE>
O=C(NCc1nccc(-c2c[nH]c3ncccc23)n1)c1cccn(Cc2ccc(F)c(F)c2)c1=O [Cpd 146]

>  <EC50>
> 5 µM

$$$$
>  <MOLECULE>
O=C(NCc1cccc(-c2c[nH]c3ncccc23)c1)c1cccn(Cc2ccc(Cl)c(Cl)c2)c1=O [Cpd 324]

>  <EC50>
> 5 µM

$$$$

Entry C=CCOC(=O)C[C@@H](NC(=O)c1cccn(Cc2ccc(F)c(F)c2)c1=O)c1ncc(-c2c[nH]c3ncccc23)o1 [Cpd 301] , EC50 reported as 1 to 5 µM

For reference, reported EC50 for NC[C@@H](NC(=O)c1cccn(Cc2ccc(F)c(F)c2)c1=O)c1nc(-c2c[nH]c3ncccc23)cs1 [Cpd 296] stands at 1 to 5 µM

The molecule O=C(N[C@H](CO)c1nnc(-c2c[nH]c3ncccc23)o1)c1cccn(Cc2ccc(F)c(F)c2)c1=O [Cpd 284] showed EC50 equal to 1 to 5 µM

Every entry's value here was drawn from patent US9873693B2.
